ASSAY: Cmax in Sprague-Dawley rat at 10 mg/kg, po administered as cassette dose measured upto 24 hrs by LC-MS analysis
Format: ADME, organism-based
Parameters: time < 24 hrs, dose 10 mg/kg, route po
MEASUREMENT_CONTEXT: in vivo
REPORTED_ENDPOINT: Cmax (ng/mL)

a. Nc1ncnc2c1c(-c1ccc(Oc3ccccc3)cc1)nn2[C@@H]1CCCN(C(=O)CC(=O)NCC#CCN2CCN(CC#Cc3ccc4c(c3)CN(C3CCC(=O)NC3=O)C4=O)CC2)C1 (some centres not stated)
b. Nc1ncnc2c1c(-c1ccc(Oc3ccccc3)cc1)nn2[C@@H]1CCCN(C(=O)CCC(=O)N2CCN(CC#Cc3ccc4c(c3)CN(C3CCC(=O)NC3=O)C4=O)CC2)C1 (some centres not stated)
Quick check, higher Cmax between a and b ? Lab note: record the label of whichever item you select.
a

---

ASSAY: AUC (0 to infinity) in ICR mouse at 100 mg/kg, po measured upto 48 hrs by LC/MS analysis
Type: ADME, organism-based
Set-up: time < 48 hrs, dose 100 mg/kg, route po
MEASUREMENT_CONTEXT: in vivo
REPORTED_ENDPOINT: AUC(0-inf) (ng·h/mL)

a. Nc1ncnc2c1c(-c1ccc(Oc3ccccc3)cc1)nn2[C@@H]1CCCN(C(=O)[C@H]2CCCC[C@H]2C(=O)NCC#CCN2CCN(CC#Cc3ccc4c(c3)CN(C3CCC(=O)NC3=O)C4=O)CC2)C1 (some centres not stated)
b. Nc1ncnc2c1c(-c1ccc(Oc3ccccc3)cc1)nn2C1CCN(C2CCN(CC#Cc3ccc4c(c3)CN(C3CCC(=O)NC3=O)C4=O)CC2)CC1 (configuration not stated)
Which one would you say has the larger AUC(0-inf) value: a , or b ? Use the label to indicate which entry you chose.
b
(b: 17100 ng·h/mL, a: 81 ng·h/mL)

---

ASSAY: Cmax in Sprague-Dawley rat at 5 to 10 mg/kg, po administered as cassette dose measured upto 24 hrs by LC-MS analysis
Assay type: ADME, organism-based
Set-up: time < 24 hrs, route po
MEASUREMENT_CONTEXT: in vivo, dose 5-10 mg/kg
REPORTED_ENDPOINT: Cmax (ng/mL)

O=C1CCC(N2C(=O)c3cccc(NCCN4CCN(CC#CCOc5ccc(C(F)(F)F)cc5)CC4)c3C2=O)C(=O)N1 (centres undefined) | 24

a. Nc1ncnc2c1c(-c1ccc(Oc3ccccc3)cc1)nn2C1CCN(C2CCN(CC#Cc3ccc4c(c3)CN(C3CCC(=O)NC3=O)C4=O)CC2)CC1 (centres undefined)
b. O=C1CCC(N2C(=O)c3cccc(N4CCN(C5CCN(CCCCOc6ccc(C(F)(F)F)cc6)CC5)CC4)c3C2=O)C(=O)N1 (centres undefined)
Between the entries labelled a and b , which has a larger Cmax value on record? Let me know the label of the one you choose.
b

---

ASSAY: Tmax in Sprague-Dawley rat at 5 to 10 mg/kg, po administered as cassette dose measured upto 24 hrs by LC-MS analysis
Assay type: ADME, organism-based
MEASUREMENT_CONTEXT: in vivo, dose 5-10 mg/kg
REPORTED_ENDPOINT: Tmax (h)

Worked examples follow.
Nc1ncnc2c1c(-c1ccc(Oc3ccccc3)cc1)nn2[C@@H]1CCCN(C(=O)/C=C/C(=O)NCC#CCN2CCN(CC#Cc3ccc4c(c3)CN(C3CCC(=O)NC3=O)C4=O)CC2)C1 (some centres undefined) | 0.6
O=C1CCC(N2Cc3ccc(C#CCN4CCN(CC#CCOc5ccc(C(F)(F)F)cc5)CC4)cc3C2=O)C(=O)N1 (centres undefined) | 8.5
O=C1CCC(N2C(=O)c3cccc(N4CCN(C5CCN(CCCCOc6ccc(C(F)(F)F)cc6)CC5)CC4)c3C2=O)C(=O)N1 (centres undefined) | 4.7
O=C1CCC(N2Cc3cc(CCCN4CCN(CC#CCOc5ccc(C(F)(F)F)cc5)CC4)ccc3C2=O)C(=O)N1 (centres undefined) | 0.3
O=C1CCC(N2C(=O)c3cccc(NCCN4CCN(CC#CCOc5ccc(C(F)(F)F)cc5)CC4)c3C2=O)C(=O)N1 (centres undefined) | 3.7

P. O=C1CCC(N2C(=O)c3cccc(N4CCN(C5CCN(CC#CCOc6ccc(C(F)(F)F)cc6)CC5)CC4)c3C2=O)C(=O)N1 (centres undefined)
Q. O=C1CCC(N2Cc3cc(C#CCN4CCN(c5ccc(C(F)(F)F)cc5)CC4)ccc3C2=O)C(=O)N1 (centres undefined)
R. O=C1CCC(N2C(=O)c3ccc(N4CCN(C5CN(CCCCOc6ccc(C(F)(F)F)cc6)C5)CC4)cc3C2=O)C(=O)N1 (centres undefined)
S. O=C1CCC(N2C(=O)c3ccc(N4CCN(CC#CCN5CCN(c6ccc(C(F)(F)F)cc6)CC5)CC4)cc3C2=O)C(=O)N1 (centres undefined)
T. Nc1ncnc2c1c(-c1ccc(Oc3ccccc3)cc1)nn2[C@@H]1CCCN(C(=O)[C@H]2CCCC[C@H]2C(=O)N2CCN(CC#Cc3ccc4c(c3)CN(C3CCC(=O)NC3=O)C4=O)CC2)C1 (some centres undefined)
Hello, I need these entries ordered by Tmax, highest reading first. Thanks! Thanks in advance for listing the labels in the requested order.
R, Q, S, P, T

Taken from ChEMBL document CHEMBL5131541.
